- System: 945468-187-T-J2-PDC spheroids viability;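 note: spheroids exposed to compounds for seven days before reading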
- Assay Procedure: Anticancer human tumor 945468-187-T-J2-PDC patient-derived rectal carcinoma cell line growth inhibition [PI3K]
- Test Conditions: second compound 1 µM; first compound 0.316 µM; stronger effect = lower value; spheroids with HUVEC and MSC

- Compound: "C=CC(=O)N1CCN(c2nc(=O)n(-c3c(C)ccnc3C(C)C)c3nc(-c4c(O)cccc4F)c(F)cc23)C(C)C1 (stereo not drawn) + CC(Nc1ccc2c(c1)OCCn1cc(N3C(=O)OCC3C(F)F)nc1-2)C(N)=O"
  viability, T/C [%]: 81.8
- Compound: "CC1(C)CCC(Nc2ncc(C(F)(F)F)c(-c3c[nH]c4c(P(C)(C)=O)c(C#N)ccc34)n2)CN1 (stereo not drawn) + CC(Nc1ncnc2nc[nH]c12)c1cc2cccc(Cl)c2c(=O)n1-c1ccccc1"
  viability, T/C [%]: 56.9
- Compound: "C#Cc1c(F)ccc2cc(O)cc(-c3ncc4c(N5CC6CCC(C5)N6)nc(OCC56CCCN5CC(F)C6)nc4c3F)c12 (stereo not drawn) + CC(Nc1ccc2c(c1)OCCn1cc(N3C(=O)OCC3C(F)F)nc1-2)C(N)=O"
  viability, T/C [%]: 67.1
